TARGET_UNDER_TEST: Dual specificity tyrosine-phosphorylation-regulated kinase 1B (Homo sapiens, UniProt Q9Y463)
Sequence (Q9Y463 whole entry): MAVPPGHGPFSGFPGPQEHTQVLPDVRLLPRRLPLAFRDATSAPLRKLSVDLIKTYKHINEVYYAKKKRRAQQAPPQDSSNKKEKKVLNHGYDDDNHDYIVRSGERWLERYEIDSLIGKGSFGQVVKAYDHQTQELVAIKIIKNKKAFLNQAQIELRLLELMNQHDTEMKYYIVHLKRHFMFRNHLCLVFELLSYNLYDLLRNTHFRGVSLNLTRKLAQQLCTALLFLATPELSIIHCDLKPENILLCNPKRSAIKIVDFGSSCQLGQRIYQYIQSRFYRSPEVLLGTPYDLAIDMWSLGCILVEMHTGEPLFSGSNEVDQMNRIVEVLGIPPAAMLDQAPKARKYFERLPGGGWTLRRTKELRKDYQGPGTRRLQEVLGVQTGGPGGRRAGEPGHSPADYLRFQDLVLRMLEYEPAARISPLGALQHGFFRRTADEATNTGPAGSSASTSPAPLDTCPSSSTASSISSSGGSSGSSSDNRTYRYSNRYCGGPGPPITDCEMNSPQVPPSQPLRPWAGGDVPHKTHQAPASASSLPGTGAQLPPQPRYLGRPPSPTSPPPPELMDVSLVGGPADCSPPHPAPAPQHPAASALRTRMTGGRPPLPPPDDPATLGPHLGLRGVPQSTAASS
OUTCOME_MEASURE: IC50 (nM)
The reply should contain only the number, in nM.

Task: If you can, please state the reported IC50 value of Cc1ccc2c(-c3ccc4ncnc(N[C@H](CO)c5ccccc5)c4c3)c[nH]c2n1 .
Output: 1.02

====

TARGET_UNDER_TEST: CYP2C19 (Homo sapiens)
Sequence (P33261 whole entry): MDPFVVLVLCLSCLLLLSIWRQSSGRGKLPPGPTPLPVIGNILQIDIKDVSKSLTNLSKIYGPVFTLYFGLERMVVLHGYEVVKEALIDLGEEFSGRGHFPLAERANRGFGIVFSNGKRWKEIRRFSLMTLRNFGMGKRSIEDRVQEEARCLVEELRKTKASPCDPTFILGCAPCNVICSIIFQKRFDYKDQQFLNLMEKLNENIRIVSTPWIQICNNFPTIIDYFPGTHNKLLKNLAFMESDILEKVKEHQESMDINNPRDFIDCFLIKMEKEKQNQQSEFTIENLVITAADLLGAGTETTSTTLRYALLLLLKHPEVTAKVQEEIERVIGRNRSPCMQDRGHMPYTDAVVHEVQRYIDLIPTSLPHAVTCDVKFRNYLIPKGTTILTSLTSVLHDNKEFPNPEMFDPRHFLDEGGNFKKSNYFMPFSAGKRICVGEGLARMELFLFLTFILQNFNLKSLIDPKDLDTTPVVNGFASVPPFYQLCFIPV
TEST_DETAILS: Inhibition of CYP2C19 in human liver microsomes using mephenytoin as substrate at 10 uM preincubated for 10 mins followed by NADPH addition and measured after 40 mins by LC-MS/MS analysis relative to control
Format: ADME, Microsome
CONDITION: probe mephenytoin, time 50 min
Recorded inhibition at 40 min, 10 µM, one value per entry.
The reply should contain only the number, in %.

COMPOUND: Cc1ccc2c(-c3ccc4ncnc(N[C@H](CO)c5ccccc5)c4c3)c[nH]c2n1
TARGET_UNDER_TEST: CYP2C19 (Homo sapiens)
DISPLAY_UNIT: %
ENDPOINT_VALUE: 96.9

Task: If you can, please state the reported inhibition at 40 min, 10 µM value of CCC1(c2ccccc2)NC(=O)N(Cc2ccccc2)C1=O (configuration not stated) .
Output: 95.6
